From: patent US8389526B2

Target: c-Met receptor tyrosine kinase, GST-c-Met(969-1390) (Homo sapiens, UniProt P08581)
Construct: made in house
Sequence (P08581 969-1390): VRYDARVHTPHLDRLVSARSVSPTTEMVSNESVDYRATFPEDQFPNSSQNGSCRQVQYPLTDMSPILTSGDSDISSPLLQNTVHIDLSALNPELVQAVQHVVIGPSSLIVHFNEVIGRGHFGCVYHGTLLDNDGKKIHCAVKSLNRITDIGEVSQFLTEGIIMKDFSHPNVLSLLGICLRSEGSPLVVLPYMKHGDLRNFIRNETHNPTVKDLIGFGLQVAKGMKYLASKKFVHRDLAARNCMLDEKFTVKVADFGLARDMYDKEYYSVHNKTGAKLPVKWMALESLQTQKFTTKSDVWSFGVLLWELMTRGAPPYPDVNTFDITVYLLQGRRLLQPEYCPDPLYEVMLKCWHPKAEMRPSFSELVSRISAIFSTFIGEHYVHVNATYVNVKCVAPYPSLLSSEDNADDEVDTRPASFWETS
Test: EPK c-Met profiling assay (LanthaScreen TR-FRET kinase assay)
Type: biochemical
Conditions: 2 μM ATP, 0.3 nM enzyme, 60 minutes at room temperature
Label 1 when IC50 is strictly below 6 nM; otherwise label -1.

- compound: "CC(=O)N1CCN(c2ccc3ncc(Cc4c(F)cc5ncccc5c4F)n3n2)CC1"
  categoryLabel: -1
- compound: "CC(c1c(F)cc2ncccc2c1F)c1cnc2ccc(N3CCN(C(N)=O)CC3)nn12 (racemic)"
  categoryLabel: 1
- compound: "C[C@@H](c1c(F)cc2ncccc2c1F)c1cnc2ccc(N3CCN(C)CC3)nn12"
  categoryLabel: 1
- compound: "CC(c1c(F)cc2ncccc2c1F)c1cnc2ccc(N3CCN(c4ccccn4)C(=O)C3)nn12 (racemic)"
  categoryLabel: -1
- compound: "CC(=O)N1CCN(c2ccc3ncc(Cc4c(F)cc5c(cnn5C)c4F)n3n2)CC1"
  categoryLabel: -1
- compound: "CC(c1c(F)cc2ncccc2c1F)c1cnc2ccc(N3CCN(C)C(=O)C3)nn12 (racemic)"
  categoryLabel: -1
- compound: "C[C@@H](c1cc2cnn(C)c2cc1F)c1cnc2ccc(N3CCNC(=O)C3)nn12"
  categoryLabel: -1
- compound: "CC(=O)N1CCN(c2ccc3ncc([C@@H](C)c4cc5cnn(C)c5cc4F)n3n2)CC1"
  categoryLabel: -1
- compound: "CC(c1c(F)cc2ncccc2c1F)c1cnc2ccc(N3CCN(C(=O)C(F)(F)F)CC3)nn12 (racemic)"
  categoryLabel: -1
- compound: "CC(=O)N1CCN(c2ccc3ncc(Cc4ccc5ncccc5c4F)n3n2)CC1"
  categoryLabel: -1
- compound: "CC(c1c(F)cc2ncccc2c1F)c1cnc2ccc(N3CCN(C)CC3)nn12 (racemic)"
  categoryLabel: 1
- compound: "C[C@@H](c1c(F)cc2ncccc2c1F)c1cnc2ccc(N3CCN(C=O)CC3)nn12"
  categoryLabel: 1
- compound: "C[C@@H](c1c(F)cc2ncccc2c1F)c1cnc2ccc(N3CCNCC3)nn12"
  categoryLabel: 1
- compound: "C[C@H](c1c(F)cc2ncccc2c1F)c1cnc2ccc(N3CCNC(=O)C3)nn12 (single isomer, unassigned)"
  categoryLabel: -1
- compound: "CN1CCN(c2ccc3ncc(Cc4cc5cccnc5cc4F)n3n2)CC1=O"
  categoryLabel: -1
- compound: "CC(=O)N1CCN(c2ccc3ncc([C@@H](C)c4c(F)cc5c(cnn5C)c4F)n3n2)CC1"
  categoryLabel: 1

---

Here's a batch of compounds along with measured pIC50 for c-Met receptor tyrosine kinase, GST-c-Met(969-1390) (Homo sapiens, UniProt P08581).
pIC50: −log10 of the molar value.

- compound: "C[C@@H](c1c(F)cc2ncccc2c1F)c1cnc2ccc(N3CCNC(=O)[C@@H]3C)nn12 [Example 60]"
  censorSymbol: "="
  pIC50: 8.59
- compound: "O=CN1CCN(c2ccc3ncc(Cc4c(F)cc5ncccc5c4F)n3n2)CC1 [Example 35]"
  censorSymbol: "="
  pIC50: 8.00
- compound: "O=C1CN(c2ccc3ncc(Cc4c(F)cc5ncccc5c4F)n3n2)CCN1 [Example 31]"
  censorSymbol: "="
  pIC50: 8.09
- compound: "CC(c1cc2cccnc2cc1F)c1cnc2ccc(N3CCN(C)C(=O)C3)nn12 (racemic) [Example 40]"
  censorSymbol: "="
  pIC50: 7.41
- compound: "CC(=O)N1CCN(c2ccc3ncc(C(C)c4cc5cccnc5cc4F)n3n2)CC1 (racemic) [Example 42]"
  censorSymbol: "="
  pIC50: 7.31
- compound: "CC(=O)N1CCN(c2ccc3ncc(C(C)c4c(F)cc5ncccc5c4F)n3n2)CC1 (racemic) [Example 10]"
  censorSymbol: ">"
  pIC50: 8.52
- compound: "CN1CCN(c2ccc3ncc(Cc4ccc5ncccc5c4F)n3n2)CC1=O [Example 43]"
  censorSymbol: "="
  pIC50: 7.08
- compound: "CC(c1c(F)cc2ncccc2c1F)c1cnc2ccc(N3CC(=O)NCC3C)nn12 (racemic) [Example 23]"
  censorSymbol: "="
  pIC50: 7.82

---

Molecular target: c-Met (Homo sapiens)
Construct: adapted to measure the phosphorylation of endogenous cellular proteins in cell lysates; endogenous in cells
Assay: GTL-16 c-Met autophosphorylation measured by AlphaScreen detection
Settings: GTL-16 cells, 1 h incubation, AlphaScreen p-c-Met; read-out: GTL-16 IC50 c-Met phosphorylation
Description: C-Met Dependent Cellular Assays A number of compounds of the present invention were assayed in a c-Met dependent proliferation and phosphorylation assay as follows. […] For detection of p-c-Met, an AlphaScreen®-based assay was used. […] The plate was read on an AlphaScreen® compatible plate reader, using standard AlphaScreen® settings.
Reported IC50 values for the following compounds.

- compound: "CC(c1c(F)cc2c(cnn2C(C)C)c1F)c1cnc2ccc(N3CCN(C)C(=O)C3)nn12 (racemic) [Example 56]"
  IC50: "7 nM"
- compound: "CC(c1cc2cccnc2cc1F)c1cnc2ccc(N3CCN(C)C(=O)C3)nn12 (racemic) [Example 40]"
  IC50: "11 nM"
- compound: "C[C@@H](c1c(F)cc2ncccc2c1F)c1cnc2ccc(N3CCN(C)CC3)nn12 [Example 9]"
  IC50: "2.2 nM"
- compound: "CC(=O)N1CCN(c2ccc3ncc([C@@H](C)c4cc5cnn(C)c5cc4F)n3n2)CC1 [Example 29]"
  IC50: "25 nM"
- compound: "O=C1CN(c2ccc3ncc(Cc4ccc5ncccc5c4F)n3n2)CCN1 [Example 44]"
  IC50: "31 nM"
- compound: "CC(c1c(F)cc2ncccc2c1F)c1cnc2ccc(N3CCN(c4ccccc4)C(=O)C3)nn12 (racemic) [Example 22]"
  IC50: "6 nM"
- compound: "CC(c1c(F)cc2c(cnn2C(C)C)c1F)c1cnc2ccc(N3CCNC(=O)C3)nn12 (racemic) [Example 57]"
  IC50: "9 nM"
- compound: "CC1CN(c2ccc3ncc(C(C)c4c(F)cc5ncccc5c4F)n3n2)CC(=O)N1 (racemic) [Example 24]"
  IC50: "4 nM"

---

Experiment: Solubility assay at pH 7 and in FaSSIF
Type: physicochemical
Details: FaSSIF (fasted state simulated intestinal fluid), fassif, thermodynamic from solid; fasted state simulated intestinal fluid, stirred over night at room temperature; read-out: Solubility FaSSIF
resultType: solubility (µg/mL)

- compound: "C[C@@H](c1cc2cnn(C)c2cc1F)c1cnc2ccc(N3CCNC(=O)C3)nn12 [Example 28]"
  resultType: "solubility"
  testResult: 374
- compound: "C[C@@H](c1c(F)cc2ncccc2c1F)c1cnc2ccc(N3CCNC(=O)C3)nn12 (single isomer, unassigned) [Example 5]"
  resultType: "solubility"
  testResult: 164
- compound: "CC(=O)N1CCN(c2ccc3ncc([C@@H](C)c4c(F)cc5ncccc5c4F)n3n2)CC1 [Example 11]"
  resultType: "solubility"
  testResult: 1350
- compound: "C[C@@H](c1c(F)cc2ncccc2c1F)c1cnc2ccc(N3CCN(C)C(=O)C3)nn12 [Example 2]"
  resultType: "solubility"
  testResult: 289
- compound: "C[C@@H](c1c(F)cc2ncccc2c1F)c1cnc2ccc(N3CCNCC3)nn12 [Example 7]"
  resultType: "solubility"
  testResult: 172

---

Target: c-Met (Homo sapiens, UniProt P08581)
Construct: adapted to measure the phosphorylation of endogenous cellular proteins in cell lysates; endogenous in cells; host or cells: GTL-16
Sequence (P08581 25-1390): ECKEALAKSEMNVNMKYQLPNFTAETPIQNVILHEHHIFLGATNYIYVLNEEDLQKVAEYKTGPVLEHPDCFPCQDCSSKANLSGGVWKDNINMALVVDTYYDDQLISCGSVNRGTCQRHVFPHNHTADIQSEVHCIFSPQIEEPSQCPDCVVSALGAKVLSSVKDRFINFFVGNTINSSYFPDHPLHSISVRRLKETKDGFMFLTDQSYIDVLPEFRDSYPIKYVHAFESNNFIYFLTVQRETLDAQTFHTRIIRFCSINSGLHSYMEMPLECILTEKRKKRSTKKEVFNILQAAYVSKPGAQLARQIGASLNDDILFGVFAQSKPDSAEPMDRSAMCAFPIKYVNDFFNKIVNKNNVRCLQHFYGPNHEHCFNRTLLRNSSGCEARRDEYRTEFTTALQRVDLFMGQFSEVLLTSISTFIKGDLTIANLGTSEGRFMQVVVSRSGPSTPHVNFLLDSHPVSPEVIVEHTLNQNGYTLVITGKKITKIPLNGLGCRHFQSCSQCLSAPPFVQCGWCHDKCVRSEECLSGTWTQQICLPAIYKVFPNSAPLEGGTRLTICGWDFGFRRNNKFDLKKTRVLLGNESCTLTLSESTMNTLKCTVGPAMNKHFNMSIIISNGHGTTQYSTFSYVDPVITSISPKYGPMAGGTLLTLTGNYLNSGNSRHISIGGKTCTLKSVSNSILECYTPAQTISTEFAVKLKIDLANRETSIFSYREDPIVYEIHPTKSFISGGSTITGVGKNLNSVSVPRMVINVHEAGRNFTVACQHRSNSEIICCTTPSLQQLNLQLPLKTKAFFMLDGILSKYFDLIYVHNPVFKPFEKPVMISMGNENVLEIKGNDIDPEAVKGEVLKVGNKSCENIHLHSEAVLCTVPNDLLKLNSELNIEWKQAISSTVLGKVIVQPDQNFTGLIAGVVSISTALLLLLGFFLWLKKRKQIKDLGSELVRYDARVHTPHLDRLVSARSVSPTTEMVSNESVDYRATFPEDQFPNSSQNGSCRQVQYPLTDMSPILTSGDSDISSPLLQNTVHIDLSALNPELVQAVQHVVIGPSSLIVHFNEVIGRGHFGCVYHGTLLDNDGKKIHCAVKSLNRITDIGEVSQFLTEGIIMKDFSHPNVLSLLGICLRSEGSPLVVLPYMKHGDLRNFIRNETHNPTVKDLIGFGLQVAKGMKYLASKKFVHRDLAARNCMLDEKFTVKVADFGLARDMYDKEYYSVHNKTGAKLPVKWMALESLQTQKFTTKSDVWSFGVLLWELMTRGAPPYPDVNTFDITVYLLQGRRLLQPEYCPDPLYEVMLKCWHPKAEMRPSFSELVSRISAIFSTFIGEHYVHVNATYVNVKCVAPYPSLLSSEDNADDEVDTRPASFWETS
Assay: GTL-16 c-Met autophosphorylation measured by AlphaScreen detection
Type: cell-based
Conditions: GTL-16 cells, 1 h incubation, AlphaScreen p-c-Met; read-out: GTL-16 IC50 c-Met phosphorylation
Description: C-Met Dependent Cellular Assays A number of compounds of the present invention were assayed in a c-Met dependent proliferation and phosphorylation assay as follows. […] For detection of p-c-Met, an AlphaScreen®-based assay was used. […] The plate was read on an AlphaScreen® compatible plate reader, using standard AlphaScreen® settings.
Each item that follows carries a reported IC50.
resultType: IC50 (nM)

- molecule: "CC(=O)N1CCN(c2ccc3ncc([C@@H](C)c4c(F)cc5ncccc5c4F)n3n2)CC1"
  measuredOn: "c-Met (Homo sapiens, UniProt P08581)"
  testResult: 4.4
- molecule: "CC(c1ccc2ncccc2c1F)c1cnc2ccc(N3CCN(C)C(=O)C3)nn12 (racemic)"
  measuredOn: "c-Met (Homo sapiens, UniProt P08581)"
  testResult: 15
- molecule: "CC1C(=O)NCCN1c1ccc2ncc([C@@H](C)c3c(F)cc4ncccc4c3F)n2n1 (mixture of isomers)"
  measuredOn: "c-Met (Homo sapiens, UniProt P08581)"
  testResult: 3.7
- molecule: "CC(c1c(F)cc2ncccc2c1F)c1cnc2ccc(N3CC(=O)NCC3C)nn12 (racemic)"
  measuredOn: "c-Met (Homo sapiens, UniProt P08581)"
  testResult: 3.3
